- measurement-target: COX-2 (Homo sapiens, UniProt P35354)
- Construct: incubation of human whole blood with LPS, which induces COX-2; endogenous in cells; host or cells: heparinized fresh whole blood of human volunteers, incubated with LPS for 24 h
- Sequence (P35354 18-604): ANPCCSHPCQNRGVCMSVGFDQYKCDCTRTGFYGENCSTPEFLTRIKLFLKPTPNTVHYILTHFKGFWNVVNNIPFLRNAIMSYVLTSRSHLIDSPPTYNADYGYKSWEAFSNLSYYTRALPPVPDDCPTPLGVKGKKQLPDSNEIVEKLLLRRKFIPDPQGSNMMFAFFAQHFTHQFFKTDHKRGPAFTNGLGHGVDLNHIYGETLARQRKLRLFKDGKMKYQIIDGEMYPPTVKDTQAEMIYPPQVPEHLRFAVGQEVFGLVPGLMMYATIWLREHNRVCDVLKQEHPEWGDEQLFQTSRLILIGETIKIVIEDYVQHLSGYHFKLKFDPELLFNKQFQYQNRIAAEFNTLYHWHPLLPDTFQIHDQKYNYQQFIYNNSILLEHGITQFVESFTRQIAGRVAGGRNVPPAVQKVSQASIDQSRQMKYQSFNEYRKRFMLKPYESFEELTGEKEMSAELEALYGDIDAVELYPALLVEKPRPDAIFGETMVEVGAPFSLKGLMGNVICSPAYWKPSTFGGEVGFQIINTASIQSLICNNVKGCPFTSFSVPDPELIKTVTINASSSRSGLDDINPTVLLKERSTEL
- method: Human whole blood assay, COX-2 (LPS-induced PGE2 production)
- Format: cell-based
- reported-conditions: human whole blood, LPS-induced PGE2, 24 h; read-out: COX-2 (IC50 mM) HWB
# note: exactly 0.005 mM is not below, so it is -1; use 1 for IC50 strictly under it

As a guide, the following entries are already answered.
{"compound": "CS(=O)(=O)c1ccc(-c2cc(C(F)(F)F)cnc2N2CCSCC2)cc1 [Example 28]", "assigned-class": 1}
{"compound": "CC1(CO)CCCN(c2ncc(C(F)(F)F)cc2-c2ccc(S(C)(=O)=O)cc2)C1 (stereo not shown) [Example 17]", "assigned-class": -1}
{"compound": "COC[C@@H]1CCCN1c1ncc(C(F)(F)F)cc1-c1ccc(S(C)(=O)=O)cc1 [Example 10]", "assigned-class": 1}
{"compound": "CS(=O)(=O)c1ccc(-c2cc(C(F)(F)F)cnc2N2CCC[C@@H]2CO)cc1 [Example 8]", "assigned-class": -1}
{"compound": "CS(=O)(=O)c1ccc(-c2cc(C(F)(F)F)cnc2N2CC=CCC2)cc1 [Example 5]", "assigned-class": 1}

QUERY: Report whether reported IC50 is lower than 0.005 mM (strictly) for CS(=O)(=O)c1ccc(-c2cc(C(F)(F)F)cnc2N2CCCCC(CO)C2)cc1 (stereo not shown) [Example 18]
RESULT: -1

QUERY: Report whether reported IC50 is lower than 0.005 mM (strictly) for CS(=O)(=O)c1ccc(-c2cc(C(F)(F)F)cnc2N2CCCC(O)C2)cc1 (stereo not shown) [Example 23]
RESULT: -1

QUERY: Report whether reported IC50 is lower than 0.005 mM (strictly) for CS(=O)(=O)c1ccc(-c2cc(C(F)(F)F)cnc2N2CCC(F)CC2)cc1 [Example 26]
RESULT: 1

QUERY: Report whether reported IC50 is lower than 0.005 mM (strictly) for CS(=O)(=O)c1ccc(-c2cc(C(F)(F)F)cnc2N2CCC(O)CC2)cc1 [Example 22]
RESULT: -1

QUERY: Report whether reported IC50 is lower than 0.005 mM (strictly) for CS(=O)(=O)c1ccc(-c2cc(C(F)(F)F)cnc2N2CCCCC2CO)cc1 (stereo not shown) [Example 13]
RESULT: 1

QUERY: Report whether reported IC50 is lower than 0.005 mM (strictly) for CS(=O)(=O)c1ccc(-c2cc(C(F)(F)F)cnc2N2CCOCC2)cc1 [Example 27]
RESULT: 1

QUERY: Report whether reported IC50 is lower than 0.005 mM (strictly) for CS(=O)(=O)c1ccc(-c2cccnc2N2CCCCC2)cc1 [Example 4]
RESULT: -1

QUERY: Report whether reported IC50 is lower than 0.005 mM (strictly) for CS(=O)(=O)c1ccc(-c2cc(C(F)(F)F)cnc2N2CCCCC2CCO)cc1 (stereo not shown) [Example 19]
RESULT: 1

QUERY: Report whether reported IC50 is lower than 0.005 mM (strictly) for CS(=O)(=O)c1ccc(-c2cc(C(F)(F)F)cnc2N2CCC[C@H]2CO)cc1 [Example 7]
RESULT: 1

QUERY: Report whether reported IC50 is lower than 0.005 mM (strictly) for CS(=O)(=O)c1ccc(-c2cc(Cl)cnc2N2CCC[C@H]2CO)cc1 [Example 9]
RESULT: 1

QUERY: Report whether reported IC50 is lower than 0.005 mM (strictly) for CS(=O)(=O)c1ccc(-c2cc(C(F)(F)F)cnc2N2CCC(F)(F)CC2)cc1 [Example 24]
RESULT: -1

QUERY: Report whether reported IC50 is lower than 0.005 mM (strictly) for CS(=O)(=O)c1ccc(-c2cc(C(F)(F)F)cnc2N2CCC(=O)CC2)cc1 [Example 20]
RESULT: -1

QUERY: Report whether reported IC50 is lower than 0.005 mM (strictly) for CC(=O)OC[C@@H]1CCCN1c1ncc(C(F)(F)F)cc1-c1ccc(S(C)(=O)=O)cc1 [Example 11]
RESULT: 1

QUERY: Report whether reported IC50 is lower than 0.005 mM (strictly) for CS(=O)(=O)c1ccc(-c2cc(C(F)(F)F)cnc2N2CCCCC2)cc1 [Example 2]
RESULT: 1

QUERY: Report whether reported IC50 is lower than 0.005 mM (strictly) for CS(=O)(=O)c1ccc(-c2cc(C(F)(F)F)cnc2N2CCCC(F)(F)C2)cc1 [Example 25]
RESULT: 1

QUERY: Report whether reported IC50 is lower than 0.005 mM (strictly) for CS(=O)(=O)c1ccc(-c2cc(C(F)(F)F)cnc2N2CCCC(=O)C2)cc1 [Example 21]
RESULT: -1

QUERY: Report whether reported IC50 is lower than 0.005 mM (strictly) for CS(=O)(=O)c1ccc(-c2cc(C(F)(F)F)cnc2N2CCCCCC2)cc1 [Example 6]
RESULT: -1

---

- measurement-target: COX-2 (Homo sapiens)
- Construct: incubation of human whole blood with LPS, which induces COX-2; endogenous in cells; host or cells: heparinized fresh whole blood of human volunteers, incubated with LPS for 24 h
- method: Human whole blood assay, COX-2 (LPS-induced PGE2 production)
- Type: cell-based
- Description: As well, platelets in whole blood contain a large amount of the COX-1 enzyme. Immediately following blood clotting, platelets are activated through a thrombin-mediated mechanism. This reaction results in the production of thromboxane B2 (TxB2) via activation of COX-1. […] Therefore, the degree of selectivity by the test compound can be determined by measuring the levels of PGE2 after LPS induction (COX-2) and TxB2 following blood clotting (COX-1) in the same assay. […]
property-label: IC50 (µM)
One number for each entry, in µM.

{"compound": "CS(=O)(=O)c1ccc(-c2cc(C(F)(F)F)cnc2N2CCC[C@H](CO)C2)cc1 (single isomer, unassigned)", "property-label": "IC50", "obs-value": 0.5}
{"compound": "CS(=O)(=O)c1ccc(-c2cc(C(F)(F)F)cnc2N2CCCC2)cc1", "property-label": "IC50", "obs-value": 9.7}

Below: the item to evaluate.
QUERY: Look up and state reported IC50 for CS(=O)(=O)c1ccc(-c2cc(C(F)(F)F)cnc2N2CCC[C@@H](CO)C2)cc1 (single isomer, unassigned)
RESULT: 26.6

---

- measurement-target: COX-1 (Homo sapiens, UniProt P23219)
- Sequence (P23219 24-599): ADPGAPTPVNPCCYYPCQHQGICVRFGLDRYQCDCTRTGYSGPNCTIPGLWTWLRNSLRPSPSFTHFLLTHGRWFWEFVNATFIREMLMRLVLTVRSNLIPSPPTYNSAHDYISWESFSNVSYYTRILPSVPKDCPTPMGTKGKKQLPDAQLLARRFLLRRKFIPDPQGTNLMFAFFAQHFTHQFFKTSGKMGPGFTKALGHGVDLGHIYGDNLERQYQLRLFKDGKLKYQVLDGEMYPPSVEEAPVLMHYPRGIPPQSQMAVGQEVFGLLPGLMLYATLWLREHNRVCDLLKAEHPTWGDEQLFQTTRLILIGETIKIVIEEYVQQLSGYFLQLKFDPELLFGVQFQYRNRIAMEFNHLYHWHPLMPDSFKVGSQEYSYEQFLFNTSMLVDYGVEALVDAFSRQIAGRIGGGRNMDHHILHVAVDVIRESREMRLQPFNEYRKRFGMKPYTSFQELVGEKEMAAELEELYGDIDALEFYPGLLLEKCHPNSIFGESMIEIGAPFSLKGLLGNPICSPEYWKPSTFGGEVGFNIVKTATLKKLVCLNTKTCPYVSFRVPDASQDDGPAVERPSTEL
- method: Assay of COX-1 activity from U937 cell microsomes
- Assay type: biochemical
- Design: Assay of COX-1 Activity from U937 cell microsomes; endogenous in cells; host or cells: U937 cells, 100,000×g microsomal pellet
- reported-conditions: U937 cell microsomes, PGE2; read-out: COX-1 (IC50 mM) U-937
property-label: IC50

Examples with their reported IC50 follow.
{"molecule": "CS(=O)(=O)c1ccc(-c2cc(C(F)(F)F)cnc2N2CC=CCC2)cc1 [Example 5]", "IC50": "0.001 to 0.003 mM"}
{"molecule": "CS(=O)(=O)c1ccc(-c2cc(Cl)cnc2N2CCCCC2)cc1 [Example 3]", "IC50": "0.001 to 0.003 mM"}
{"molecule": "CC(=O)OC[C@@H]1CCCN1c1ncc(C(F)(F)F)cc1-c1ccc(S(C)(=O)=O)cc1 [Example 11]", "IC50": "> 0.01 mM"}
{"molecule": "CS(=O)(=O)c1ccc(-c2cc(C(F)(F)F)cnc2N2CCCCC2)cc1 [Example 2]", "IC50": "0.003 mM"}
{"molecule": "CS(=O)(=O)c1ccc(-c2cc(C(F)(F)F)cnc2N2CCCCC2CCO)cc1 (centres unmarked) [Example 19]", "IC50": "> 0.01 mM"}
{"molecule": "CS(=O)(=O)c1ccc(-c2cc(C(F)(F)F)cnc2N2CCCC(F)(F)C2)cc1 [Example 25]", "IC50": "> 0.01 mM"}

# batch: return IC50 for each of the 7 molecules below
1. CS(=O)(=O)c1ccc(-c2cc(C(F)(F)F)cnc2N2CCOCC2)cc1 [Example 27]
2. CS(=O)(=O)c1ccc(-c2cc(C(F)(F)F)cnc2N2CCCC(=O)C2)cc1 [Example 21]
3. CS(=O)(=O)c1ccc(-c2cccnc2N2CCCCC2)cc1 [Example 4]
4. CS(=O)(=O)c1ccc(-c2cc(C(F)(F)F)cnc2N2CCC[C@H]2CO)cc1 [Example 7]
5. COC[C@@H]1CCCN1c1ncc(Cl)cc1-c1ccc(S(C)(=O)=O)cc1 [Example 12]
6. CS(=O)(=O)c1ccc(-c2cc(C(F)(F)F)cnc2N2CCC(O)CC2)cc1 [Example 22]
7. CS(=O)(=O)c1ccc(-c2cc(C(F)(F)F)cnc2N2CCSCC2)cc1 [Example 28]

RESULT:
1: > 0.01 mM; 2: > 0.01 mM; 3: > 0.05 mM; 4: 0.003 to 0.01 mM; 5: 0.003 to 0.01 mM; 6: > 0.01 mM; 7: 0.003 to 0.01 mM
